# assay-text: yeast display, Sf9 membrane polyspecificity reagent, FACS + sequencing; frameworks hold sequencing errors

residue-string	polyreactivity (PSR sort gate)
QVQLVESGGGLVQAGGSLRLSCAASGSTFFRYAMGWNRQAPGKERELVATITGGGRTNYADSVKGRFTISRDNAKNTVYLQMNTLKPEDTAVYYCAAYGYVWALRLRYVTYYYWGQGTQVTVSS	high polyreactivity
QVQLVESGGGLVQAGGSLRLSCAASGSTFYAYGMGWYRQAPGKERELVATITWSGGSTYYADSVKGRFTISRDNAKNTVYLQMNSLKPEDTAVYYCAARSPFPTIADGDYWGQGTQVTVSS	low polyreactivity
QVQLQESGGGLVQAGGSLRLSCAASGSIFEELDMGWYRQAPGKEREFVAAIGTGSTTYYADSVKGRFTISRDNAKNTVYLQMNSLKPEDTAVYYCAVDTWARAYLGYWGQGTQVTVSS	high polyreactivity
QVQLVESGGGLVQAGGSLRLSCAASGRTFGTYAMGWYRQAPGKERELVAAISRRGGTTYYADSVKGRFTISRDNAKNTVYLQMNSLKPEDTAVYYCARASWSITTVLSTMDYWGQGTQVTVSS	high polyreactivity
QVQLVESGGGLVQAGGSLRLSCAASGSTISYYAMGWYRQAPGKERELVAAITRSGGSTYYADSVKGRFTISRDNAKNTFYLQMNSLKPEDTAVYYCAKGWRYFVGWGQRSRYYFWGQGTQVTVSS	high polyreactivity
QVQLVESGGGLVQAGGSLRLSCAASGFTFNYNAMGWYRQAPGKERELVAAISASGGTTYYADSVKGRFTISRDNAKNTVYLQMNSLKPEDTAVYYCAAPKLDDYDYWGQGTQVTVSS	low polyreactivity
EVQLVESGGGLVQAGGSLRLSCAASGYSFSYNTMGWYRQAPGKERELVAAITRSGGSTYYADSVKGRFTISRDNAKNTVYLQMNSLKPEDTAVYYCNRVGWRGLKKANYWGQGTQVTVSS	high polyreactivity
QVQLVESGGGLVQAGGSLRLSCAASGSTFQYYPMGWYRQAPGKERELVAAISYRGSTYYADSVKGRFTISRDNAKNTVYLQMNRLKPEDTSVYYCAKGGTTWYWSGYRSIYFRYDYWGQGTQVTVSS	high polyreactivity
QVQLVESGGGLVQAGGSIRLTCAASGSTFGKYAMGWYRQAPGKERELVARIDSGDGTYYADSLKGRFTISRDNAKNTVYLKMNSLKAEDTAVYYCAAGYGARRLTYFWPQYARYDYWGQGTQVTVSS	high polyreactivity
QVQLVESGGGLVQAGGSLRLSCAASARIFPWNAMGWYRQAPGKERELVAAITSGGGTTYYADSVKGRFTISRDNAKNTVYLQMNSLKPEDTAVYYCATPWEGSSTADYRISVYYWGQGTQVTVSS	low polyreactivity
QVQLVESGGGLVQAGGSLRLSCAASGSIFNYYTMGWYRQAPGKERELVARITSGDSTYYADSVKGRFTISRDNAKNTVYLQMNSLKPEDTAVYYCNAGLYRRRSTYYRQAYNYWGQGTQVTVSS	high polyreactivity
QVQLVESGGGLVQAAGSLRLSCAASGLTFRVNDMGWYRQAPGKERELVATISSGGSTYYADSVKGRFTISRDNAKNTVYLQMNSLKAVDTAVYYCATNSEGQESNSYYVWMGYWGQGTKVTVSS	low polyreactivity
QVQLVESGGGIVQAGGSLRLSCAASGIIFKAYAMGWYRKAPGKERELVAAITTGSTTYADSVKGRFTISRDNAKNTVYLQMNSLKPEDTAVYYCNARFDWGWPGYEYDYCGQGTQVTVSS	low polyreactivity
QVQLVESGGGLVQAGGSLRLSCADSGSTFWLYAMGWYRQAPGKERELVASISSRGRSTYYADSVKGRFTISRDNAKNTVYLQMNSLKPEDTAVYYCAAKDIRYDDDYWGQGTQVTVSS	low polyreactivity
QVQIVESGAGLVQPGGSLRLSCAASGRTFPLYAMGWYRPAPGKEREFVAAITVSGVSTSYADSVKGRFTISRDNAKNTVYLQMNSLKPEDTAVYYCAADYYIWTYWDVYYWGQGTQVTVSS	high polyreactivity
QVQLVESGGGLVQAGGSLRLSCAASGSTFEAYAMGWYRQAPGKERELVAAITRGSTYYADSVKGRFTISRDNAKNTVYLQMNSLKPEDTAVYYCNVDYSYNSGYDYWGQGTQVTVSS	high polyreactivity
QVQLVESGGGLVQAGGSLRLSCAASGITFYFYAMGWYRQAPWKERELVAAITSTGTSTYYADSVKGRFTISRDNAKNTVYLQMNILKPEDTAVYYCNVTDYHTLWYDPEYYWGQGTQVTVSS	low polyreactivity
QVQLVQSGGGLVQERGSLRLSCAASGRIFVKYTMGWSRQAPGKERELVAAIDFDTDSTYYADSVTGRFTISRDNAKNTVYLQMYSLKPEDTAVYYCATGYLYFTSYRYNYWGQGTQVTVSS	low polyreactivity
QVQLVESGGGLVQAGGSLRLSCAASASIFWYNSMGWYRQAPGKEREFVDSISGSGTSTYADSVKGRFTISRDNAKNTVYLQMNSLKPEDTAVYYCIAYYEYSWLYSNWLYGKYDYWGQGTQVTVSS	low polyreactivity
QVQLVESGGGLVQAGRSLRLSCAASRSIFARYAMAWYRQAPGKERELVAAINSTVSTNYADSVKGRFTISRENAKNTVYLQMNSLKPEDTAVSYCAVDMVRGGLDSWGQGTQVTVSS	low polyreactivity
QVQLVESGGGLVQAGGSLRLSCAASGFIFAAYAMGWYRQAPGKERELVAAISGSGGRTYYADSVKGRFTISRDNAKNTVYLQMNSLKPEDTAVYYCATPPGYPPGSIKWSRFGYWGQGTQVTVSS	high polyreactivity
